assay.explanation: fission yeast growth modulation, primary screen, strain 972, OD600, 24 h, no modulator (AID 1090);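 note: basal condition with compound alone and no growth modifier present; test concentration not given here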
run.parameters: S. pombe 972 growth, higher = more signal, called active from +8 up or from −8 down
Calls of active or inactive are those of the source.
Answer each item with its documented z-score.

Example entries and their recorded answers appear below.
smiles.repr	value.observed
COc1c(C)cc(-c2cc3c(c(-c4ccc(Oc5ccccc5)cc4)n2)[Si](C(C)C)(C(C)C)OC3)cc1C	0.818 (inactive)
C[N+](C)(C)CCCCCCNC(=O)[C@H]1C[C@H]2C(=O)N3CCC[C@H]3C(=O)N2[C@H]1c1ccc(O)cc1	-0.153 (inactive)
CC(C)C(=C=CC[C@H](O)c1cccc(OCCO)c1)C[C@H](O)COCc1ccccc1	0.299 (inactive)
CCC[C@@H]1C=C(C(=O)O)[C@H](c2ccc(C)cc2)N1S(=O)(=O)c1ccc(C)cc1	0.249 (inactive)
COc1ccc(CCN2C(=O)[C@@]3(Cc4ccccc42)c2ccccc2C(=O)N(Cc2ccccc2Cl)[C@H]3c2ccc(CO)cc2)cc1	-1.51 (inactive)

For each of the items listed, what is its z-score?
1. Cc1ccc(S[C@]2(C(=O)NC3CC3)CC(=O)N(Cc3ccccc3)[C@@H]2c2ccc(CO)cc2)cc1
2. O=C1O[C@@H](c2ccccc2)[C@@H](c2ccccc2)N2[C@@H](c3ccc(O)cc3)[C@]3(C(=O)Nc4ccc(C#CC5=CCCCC5)cc43)[C@@H](C(=O)O)[C@H]12
3. C=C(CCCC)C(=O)CC[C@H](OC(=O)c1cccnc1)c1cccc(OCCO)c1

(A)
1. -0.852 (inactive)
2. -3.2 (inactive)
3. -0.86 (inactive)
